target: Carbonic anhydrase 9 (Homo sapiens) (UniProt Q16790); assay: Activation of human recombinant CA9 catalytic domain by stopped-flow CO2 hydration method
For each entry below, report its log10 KA value.
Heads up, the numbers here are log10 of KA in µM units.

So what does the record say about log10 KA for N[C@H](Cc1c[nH]c2ccccc12)C(=O)O ?
1.64

Queued: NCCc1ccccn1
-1.89

Queued: NCCc1ccc(O)c(O)c1
-0.04

Queued: NCCc1c[nH]c2ccc(O)cc12
1.52

Queued: N[C@H](Cc1ccc(O)c(O)c1)C(=O)O
1.74

Queued: CNCC(O)c1ccc(O)c(O)c1 (single isomer, unassigned)
-0.06

Queued: N[C@@H](Cc1c[nH]cn1)C(=O)O
0.99

Queued: NCc1ccccn1
0.03

Queued: N[C@@H](Cc1ccc(O)cc1)C(=O)O
1.40

Queued: NCCN1CCNCC1
-2.05

Queued: Nc1ccc(C[C@H](N)C(=O)O)cc1
1.69

Queued: N[C@@H](Cc1c[nH]c2ccccc12)C(=O)O
1.57

Queued: N[C@H](Cc1c[nH]cn1)C(=O)O
1.10

Queued: NCCN1CCOCC1
-0.37

Queued: N[C@@H](Cc1ccc(O)c(O)c1)C(=O)O
1.71

Queued: NCCc1c[nH]cn1
1.55
